Settings: in n-butanol, 318.15 K
Readout Label: solubility (mole fraction)
No unit in the answer, only the number.

stdin: I'd like to know its solubility (mole fraction). The compound in question is N#Cc1cccc([N+](=O)[O-])c1
stdout: 0.0129

---

Settings: in acetic acid, 303.15 K
Readout Label: solubility (mole fraction)

stdin: I'd like to know its solubility (mole fraction). The compound in question is N#Cc1cccc([N+](=O)[O-])c1
stdout: 0.0459

---

Conditions: in acetone, 298.15 K
Readout Label: solubility (mole fraction)
No unit in the answer, only the number.

stdin: I'd like to know its solubility (mole fraction). The molecule in question is N#Cc1cccc([N+](=O)[O-])c1
stdout: 0.142

---

Conditions: in ethanol, 313.15 K
Readout Label: solubility (mole fraction)
No unit in the answer, only the number.

stdin: I'd like to know its solubility (mole fraction). The compound in question is N#Cc1cccc([N+](=O)[O-])c1
stdout: 0.013

---

Settings: in cyclohexane, 298.15 K
Readout Label: solubility (mole fraction)
No unit in the answer, only the number.

stdin: I'd like to know its solubility (mole fraction). The molecule in question is N#Cc1cccc([N+](=O)[O-])c1
stdout: 0.000768

---

Conditions: in acetic acid, 308.15 K
Readout Label: solubility (mole fraction)

stdin: I'd like to know its solubility (mole fraction). The compound in question is N#Cc1cccc([N+](=O)[O-])c1
stdout: 0.0525

---

Conditions: in n-propanol, 298.15 K
Readout Label: solubility (mole fraction)
No unit in the answer, only the number.

stdin: I'd like to know its solubility (mole fraction). The compound in question is N#Cc1cccc([N+](=O)[O-])c1
stdout: 0.00592

---

Details: in acetonitrile, 318.15 K
Readout Label: solubility (mole fraction)

stdin: I'd like to know its solubility (mole fraction). The compound in question is N#Cc1cccc([N+](=O)[O-])c1
stdout: 0.196

---

Conditions: in cyclohexane, 318.15 K
Readout Label: solubility (mole fraction)

stdin: I'd like to know its solubility (mole fraction). The molecule in question is N#Cc1cccc([N+](=O)[O-])c1
stdout: 0.00193

---

Conditions: in n-butanol, 288.15 K
Readout Label: solubility (mole fraction)
No unit in the answer, only the number.

stdin: I'd like to know its solubility (mole fraction). The compound in question is N#Cc1cccc([N+](=O)[O-])c1
stdout: 0.00349

---

Conditions: in ethanol, 283.15 K
Readout Label: solubility (mole fraction)
No unit in the answer, only the number.

stdin: I'd like to know its solubility (mole fraction). The compound in question is N#Cc1cccc([N+](=O)[O-])c1
stdout: 0.0038

---

Settings: in isobutanol, 308.15 K
Readout Label: solubility (mole fraction)

stdin: I'd like to know its solubility (mole fraction). The molecule in question is N#Cc1cccc([N+](=O)[O-])c1
stdout: 0.00624

---

Details: in ethanol, 298.15 K
Readout Label: solubility (mole fraction)
No unit in the answer, only the number.

stdin: I'd like to know its solubility (mole fraction). The compound in question is N#Cc1cccc([N+](=O)[O-])c1
stdout: 0.00715

---

Conditions: in methanol, 298.15 K
Readout Label: solubility (mole fraction)
No unit in the answer, only the number.

stdin: I'd like to know its solubility (mole fraction). The compound in question is N#Cc1cccc([N+](=O)[O-])c1
stdout: 0.00926

Origin of values: BigSolDB 2.1
